Where these numbers come from: patent US20250163074A1

Test system: MCF7 adenocarcinoma cell line
protocol notes: Cell proliferation studies in MCF7 cells (ATP-Lite)
Format: cell-based
test conditions: Homo sapiens, 240 h, 10 days incubation, cell viability by ATP-Lite luminescence, read-out: PROLIFERATION_CTG_MCF7 IC50
pIC50: −log10 of the molar value.
Measured pIC50 values are reported for all entries that follow.

Study these solved cases before continuing.
CCN1CC2(C1)CN(c1ccc(Nc3ncc(F)c(-c4sc5c(c4C)C(=O)N(C)C54CC4)n3)nc1)C2: ≥ 7.70
Cc1c(-c2nc(Nc3ccc(C4CCN(C)CC4)cn3)ncc2F)sc2c1C(=O)N(C)CC21CC1: 6.70 to 7.70
[2H]C([2H])([2H])N1C(=O)c2c(sc(-c3nc(Nc4ccc(C5CCN(C)CC5)cn4)ncc3F)c2C)C12CC2: 6.70 to 7.70
Cc1c(-c2nc(Nc3ccc(C4CCN(C)CC4)cn3)ncc2F)sc2c1C(=O)N(C)C21CCCC1: ≥ 7.70
CCN1CC2(C1)CN(c1ccc(Nc3ncc(Cl)c(-c4cc5c(s4)C4(CC4)CN(C)C5=O)n3)nc1)C2: ≥ 7.70
Cc1c(-c2nc(Nc3ccc(N4CC5(CCN(C)C5)C4)cn3)ncc2F)sc2c1C(=O)N(C)CC21CC1: ≥ 7.70
Cc1c(-c2nc(Nc3ccc(C4CCN(C)CC4)cn3)ncc2F)sc2c1C(=O)NC21CC1: ≥ 7.70
Cc1c(-c2nc(Nc3ccc(C4CCCN(C)C4)cn3)ncc2F)sc2c1C(=O)N(C)CC21CC1 (centres unmarked): 6.70 to 7.70

Query :: Quickly give me recorded pIC50 for `Cc1c(-c2nc(Nc3ccc(C4CCN(C)CC4)cn3)ncc2F)sc2c1C(=O)N(C)C21CC1`
Result :: 6.70 to 7.70

Query :: Quickly give me recorded pIC50 for `CCN1CC2(C1)CN(c1ccc(Nc3ncc(C)c(-c4cc5c(s4)C4(CC4)CN(C)C5=O)n3)nc1)C2`
Result :: ≥ 7.70

Query :: Quickly give me recorded pIC50 for `CN1CCC(c2ccc(Nc3ncc(F)c(-c4cc5c(s4)C4(CCOCC4)CN(C)C5=O)n3)nc2)CC1`
Result :: 6.70 to 7.70

Query :: Quickly give me recorded pIC50 for `CCN1CC2(C1)CN(c1ccc(Nc3ncc(F)c(-c4cc5c(s4)C4(CCCCC4)CN(C)C5=O)n3)nc1)C2`
Result :: 6.70 to 7.70

Query :: Quickly give me recorded pIC50 for `CCN1C(=O)c2cc(-c3nc(Nc4ccc(C5CCN(C)CC5)cn4)ncc3F)sc2C12CCCC2`
Result :: 6.70 to 7.70

Query :: Quickly give me recorded pIC50 for CCN1CCC(c2ccc(Nc3ncc(F)c(-c4sc5c(c4C)C(=O)N(C)C54CC4)n3)nc2)C1 (centres unmarked)
Result :: 6.70 to 7.70

Query :: Quickly give me recorded pIC50 for `CN1CC2(CCCC2)c2sc(-c3nc(Nc4ccc(N5CCN6CCC5CC6)cn4)ncc3F)cc2C1=O`
Result :: 6.70 to 7.70

Query :: Quickly give me recorded pIC50 for `Cc1c(-c2nc(Nc3ccc(N4CCC5(CC4)CN(C)C5)cn3)ncc2F)sc2c1C(=O)N(C)CC21CC1`
Result :: 6.70 to 7.70

Query :: Quickly give me recorded pIC50 for `CCN1C[C@H]2CN(c3ccc(Nc4ncc(F)c(-c5sc6c(c5C)C(=O)N(C)CC65CC5)n4)nc3)C[C@@H]2C1`
Result :: 6.70 to 7.70

Query :: Quickly give me recorded pIC50 for `CCN1CC2(C1)CN(c1ccc(Nc3ncc(F)c(-c4cc5c(s4)C4(CCCC4)CN(C)C5=O)n3)nn1)C2`
Result :: 6.70 to 7.70

Query :: Quickly give me recorded pIC50 for `CCN1CC2(C1)CN(c1ccc(Nc3ncc(F)c(-c4ccc5c(c4)C4(CCCC4)N(C)C5=O)n3)nc1)C2`
Result :: 6.70 to 7.70

Query :: Quickly give me recorded pIC50 for `CCN1CC2(CC(c3ccc(Nc4ncc(F)c(-c5sc6c(c5C)C(=O)N(C)C65CC5)n4)nc3)C2)C1`
Result :: ≥ 7.70

Query :: Quickly give me recorded pIC50 for `CCN1C(=O)c2c(sc(-c3nc(Nc4ccc(C5CCN(C)CC5)cn4)ncc3F)c2C)C12CC2`
Result :: 6.70 to 7.70
